The measurements presented in this section are drawn from PubChem BioAssay (Tox21).

tested_system: Cytochrome P450 2C19 (Homo sapiens) (UniProt P33261)
Sequence (P33261 whole entry, looked up): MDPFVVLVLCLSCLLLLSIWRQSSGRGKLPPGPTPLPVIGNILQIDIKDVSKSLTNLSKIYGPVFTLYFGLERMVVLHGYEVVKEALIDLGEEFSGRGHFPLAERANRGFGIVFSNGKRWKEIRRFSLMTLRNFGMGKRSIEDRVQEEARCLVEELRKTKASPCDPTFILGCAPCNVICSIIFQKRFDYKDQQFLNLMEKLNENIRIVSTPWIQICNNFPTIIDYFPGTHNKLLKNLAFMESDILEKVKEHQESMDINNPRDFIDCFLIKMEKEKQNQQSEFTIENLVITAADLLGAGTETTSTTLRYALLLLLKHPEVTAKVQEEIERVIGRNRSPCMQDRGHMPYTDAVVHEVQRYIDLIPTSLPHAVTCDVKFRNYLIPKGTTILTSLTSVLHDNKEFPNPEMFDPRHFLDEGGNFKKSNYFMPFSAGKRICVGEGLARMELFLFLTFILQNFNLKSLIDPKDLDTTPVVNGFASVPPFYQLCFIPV
assay_info: Cytochrome P450 Family 2 Subfamily C Member 19 (CYP2C19) small molecule antagonists: luciferase reporter qHTS assay (AID 1671197); note: nearly all actives have a fitted effect of over 65% in size
condition_set: P450-Glo CYP2C19 enzyme, luciferin luminescence, 1 h; series mostly up to 115 µM
Inconclusive results are not listed. Activity calls are given as the source filed them. Calls come from the whole dose curve; as a rule, active = well fitted inhibition curve with a large enough effect in the repeat runs; inconclusive = weak or mixed curves; inactive = no such curve, though single readings can be large or run the other way.
Field 'call' accepts True (active), False (inactive)

Please review the entries below; each comes with its answer.
CCn1nc(C)c2c1C(=O)NCC(c1ccc(O)cc1)=N2 | False
CC(C)(O)c1ccccc1CC[C@@H](SCC1(CC(=O)O)CC1)c1cccc(/C=C/c2ccc3ccc(Cl)cc3n2)c1 | False
CC1CC(=O)NN=C1c1ccc(NCC(C)(C)NCC(O)COc2cc(Cl)ccc2C#N)cc1 (stereo not given) | True
CC(=O)CC(c1ccc([N+](=O)[O-])cc1)c1c(O)c2ccccc2oc1=O (stereo not given) | True
Nc1nc(Cl)nc2c1ncn2[C@@H]1O[C@H](CO)[C@@H](O)[C@@H]1F | False

stdin: Look up the recorded call for `O=C(CCCCCCC(=O)Nc1ccccc1)NO` in this test.
stdout: True

stdin: What is the recorded call for this compound in the test? `CCCCCCCCCCOS(=O)(=O)O`
stdout: False

---

assay_info: Caspase-3/7 induction in HepG2 cells by small molecules, qHTS cell viability counter screen (AID 1346981); note: % is set by controls: 0 for no effect and ±100 for the full control effect; nearly all actives have a fitted effect of over 30% in size
condition_set: CellTiter-Fluor fluorescence, 17 h; series mostly up to 92.4 µM
Inconclusive results are not listed. The source made the active and inactive calls. The call rests on the fitted dose curve; in most records, active means well fitted cell-killing curve with a large enough effect in the repeat runs; inconclusive means weak or mixed curves, or effect the other way; inactive means flat fitted curve, though single readings scatter.
Bench note: report the call from 1 (yes) = active, 0 (no) = inactive

Field: example entries. Status: answers known.
CCOC(=O)/C=C/C(=O)O | 0 (no)
CCCCC/C(=C\c1ccccc1)CO | 0 (no)
CCCOC(=O)c1ccc(N)cc1 | 0 (no)
CCCC1C(CC)=CC(CC)=CN1c1ccccc1 (configuration not stated) | 0 (no)
CC(=O)Oc1ccc(C(=C2CCCCC2)c2ccc(OC(C)=O)cc2)cc1 | 0 (no)

Please examine the following record next.
stdin: Any idea what this test logged for `CCCCC(=O)O[C@]1(C(=O)CO)CC[C@H]2[C@@H]3CCC4=CC(=O)CC[C@]4(C)[C@H]3[C@@H](O)C[C@@]21C` ?
stdout: 0 (no)

---

assay_info: qHTS assay to test for compound auto fluorescence at 590 nm (red) in HEK293 cells (AID 720679); note: % is set by controls: 0 for no effect and ±100 for the full control effect
condition_set: red autofluorescence 540/590 nm; series mostly up to 91.3 µM
Activity calls are given as the source filed them. The call rests on the fitted dose curve; in most records, active means well fitted curve in the direction sought with a large enough effect in the repeat runs; inconclusive means weak or mixed curves; inactive means flat fitted curve, though single readings scatter.
measure: fluorescence, % of fluorescent control

CO[C@H]1C=CO[C@@]2(C)Oc3c(C)c(O)c4c(O)c(c5c(c4c3C2=O)=NC2(CCN(CC(C)C)CC2)N=5)NC(=O)/C(C)=C\C=C/[C@H](C)[C@H](O)[C@@H](C)[C@@H](O)[C@@H](C)[C@H](OC(C)=O)[C@@H]1C | inactive
NC(=O)N(O)[C@@H]1C=C[C@H](Oc2cccc(Oc3ccc(F)cc3)c2)C1 | inactive
CC1=C(C=O)C(C)(C)CCC1 | inactive
C(=C\c1ccccc1)/CN1CCN(C(c2ccccc2)c2ccccc2)CC1 | 0.417% [at 18.6 µM] (inactive)

stdin: Given the molecule CCC(C)(C)C1CCC(O)CC1 (stereo unspecified) , what is its reported fluorescence, % of fluorescent control?
stdout: inactive

stdin: Which fluorescence, % of fluorescent control is listed for CCC(C(=O)OCCOCCN(CC)CC)c1ccccc1 (stereo unspecified) ?
stdout: inactive

---

assay_info: qHTS assay to identify small molecule antagonists of the estrogen related receptor (ERR) signaling pathway from Tox21 library - cell viability counter screen (AID 1224834); note: nearly all actives have a fitted effect of over 30% in size
condition_set: ERR reporter cells viability, CellTiter-Fluor, 17.5 h; series mostly up to 92.4 µM
Records with an inconclusive call do not appear. Active and inactive are the calls of the source. The call rests on the fitted dose curve; in most records, active means well fitted cell-killing curve with a large enough effect in the repeat runs; inconclusive means weak or mixed curves; inactive means flat fitted curve, though single readings scatter.
// allowed return values: active, inactive

C=CC(C)(O)CCCC(C)CCCC(C)CCCC(C)C (stereo not drawn) | inactive
C[Si](NC1CCCCC1)(NC1CCCCC1)NC1CCCCC1 | inactive
Fc1ccccc1[C@@H](F)COC1CCC(Nc2ncnc3[nH]ncc23)CC1 (stereo partly drawn) | active

stdin: Record lookup: outcome of this test for `CCN(Cc1cccc(S(=O)(=O)O)c1)c1ccc(C(=C2C=CC(=[N+](CC)Cc3cccc(S(=O)(=O)[O-])c3)C=C2)c2ccccc2)cc1` ?
stdout: inactive

stdin: What did the test return for `COCc1c(C(C)C)nc(C(C)C)c(/C=C/[C@@H](O)C[C@@H](O)CC(=O)O)c1-c1ccc(F)cc1` ?
stdout: inactive

stdin: // outcome(item) with item = CC1CC(=O)NN=C1c1ccc(NCC(C)(C)NCC(O)COc2cc(Cl)ccc2C#N)cc1 (stereo not drawn)
stdout: inactive

stdin: # fetch the recorded call for `CCCCCCCC/C=C\CCCCCCCC(=O)OC` here
stdout: inactive

stdin: Query: recorded result category for `CCCCCCCCCCCC(=O)[O][Sn]([CH2]CCC)([CH2]CCC)[O]C(=O)CCCCCCCCCCC` in this test
stdout: inactive

stdin: Tell me the recorded outcome of this test for `CCOC(=O)[C@@H](C)Oc1ccc(Oc2nc3ccc(Cl)cc3o2)cc1` .
stdout: inactive

stdin: What call does the record list for `C1COCO1` ?
stdout: inactive

stdin: Recorded test outcome, item `Oc1cc(O)c(Cl)cc1Cl`
stdout: inactive

stdin: Recorded call for `O=C1NCCN1` ?
stdout: inactive

stdin: Per the assay record, what outcome was assigned to `COc1cc2[nH]c(=O)[nH]c(=O)c2cc1OC` ?
stdout: inactive

stdin: Assay result, entry CC(CCc1ccc2c(c1)OCO2)NN (stereo not drawn) — outcome?
stdout: inactive

stdin: Identify the outcome logged in this assay for the compound shown: `OC/C(Br)=C(\Br)CO`
stdout: inactive

stdin: Record request — test call for `COc1cc2c(N3CCN(C(=O)Nc4ccc(OC(C)C)cc4)CC3)ncnc2cc1OCCCN1CCCCC1`
stdout: active

---

tested_system: Androgen receptor (Homo sapiens) (UniProt P10275)
Sequence (P10275 whole entry, looked up): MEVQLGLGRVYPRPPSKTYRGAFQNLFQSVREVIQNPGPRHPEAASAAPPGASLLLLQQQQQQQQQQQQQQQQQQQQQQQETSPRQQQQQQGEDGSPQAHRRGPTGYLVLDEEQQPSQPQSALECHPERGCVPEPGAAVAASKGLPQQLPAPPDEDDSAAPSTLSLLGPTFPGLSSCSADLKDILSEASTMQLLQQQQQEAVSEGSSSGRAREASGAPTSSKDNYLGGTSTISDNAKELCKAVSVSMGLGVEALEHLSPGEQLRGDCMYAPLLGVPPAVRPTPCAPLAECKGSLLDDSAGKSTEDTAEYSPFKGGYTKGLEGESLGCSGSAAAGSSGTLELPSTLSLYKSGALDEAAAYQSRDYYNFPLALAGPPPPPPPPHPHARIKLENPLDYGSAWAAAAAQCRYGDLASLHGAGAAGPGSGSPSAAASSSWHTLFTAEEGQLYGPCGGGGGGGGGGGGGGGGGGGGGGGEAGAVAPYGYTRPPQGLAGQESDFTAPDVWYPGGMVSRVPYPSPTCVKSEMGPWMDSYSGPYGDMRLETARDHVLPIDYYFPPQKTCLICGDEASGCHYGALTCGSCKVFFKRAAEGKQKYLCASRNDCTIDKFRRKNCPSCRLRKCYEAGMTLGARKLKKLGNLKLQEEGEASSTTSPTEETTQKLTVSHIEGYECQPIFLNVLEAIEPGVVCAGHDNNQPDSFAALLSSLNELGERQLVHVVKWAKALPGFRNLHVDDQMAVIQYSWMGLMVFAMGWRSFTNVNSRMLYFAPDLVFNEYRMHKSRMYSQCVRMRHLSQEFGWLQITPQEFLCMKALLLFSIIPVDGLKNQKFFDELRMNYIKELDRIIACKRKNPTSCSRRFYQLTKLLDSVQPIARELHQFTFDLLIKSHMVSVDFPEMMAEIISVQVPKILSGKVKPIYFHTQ
assay_info: qHTS assay to identify small molecule agonists of the androgen receptor (AR) signaling pathway (AID 743036); note: % is set by controls: 0 for no effect and ±100 for the full control effect
condition_set: HEK293 AR-UAS-bla GripTite, beta-lactamase FRET ratio, 16 h; series mostly up to 62.4 µM
Results filed as inconclusive are left out. The source made the active and inactive calls. Calls follow the shape of the dose curve; as a rule, active = well fitted activation curve with a large enough effect in the signal ratio in the repeat runs, with a control signal flat (not every such curve was filed as active); inconclusive = weak or mixed curves, or effect the other way; inactive = no such curve, though single readings can be large or run the other way; the % refers to the signal ratio.
measure: outcome

Guide cases for outcome, answers given:
C[Si]1(C)O[Si](C)(C)O[Si](C)(C)O1 | inactive
CCCOC(=O)c1ccc(N)cc1 | inactive
Cc1occc1C(=O)Nc1ccc(C(=O)N2CCC(F)(F)/C(=C\C(=O)N3CCC(N4CCCCC4)CC3)c3ccccc32)cc1 | inactive
COc1ccc(CCC(=O)c2c(O)cc(O[C@@H]3O[C@H](CO)[C@@H](O)[C@H](O)[C@H]3O[C@@H]3O[C@@H](C)[C@H](O)[C@@H](O)[C@H]3O)cc2O)cc1O | inactive

Then this compound:
stdin: What outcome value was documented for this compound, CCC(C(=O)OCCN(CC)CC)c1ccccc1 (stereo not given) ?
stdout: inactive

---

assay_info: qHTS assay for small molecule agonists of the p53 signaling pathway - cell viability (AID 651633); note: nearly all actives have a fitted effect of over 30% in size
condition_set: p53RE-bla HCT-116 viability, ATP luminescence, 16 h; series mostly up to 83.3 µM
Records with an inconclusive call do not appear. The source made the active and inactive calls. The call rests on the fitted dose curve.
Pick from active, inactive when you respond.

Worked set:
CC(=O)[C@H]1CC[C@H]2[C@@H]3C=CC4=CC(=O)CC[C@@]4(C)[C@@H]3CC[C@]12C | inactive
Nc1nc(Cl)nc2c1ncn2[C@@H]1O[C@H](CO)[C@@H](O)[C@@H]1F | active
CCCOc1ccc(S(=O)(=O)N2CCN(CC)CC2)cc1-c1nc2c(CC)n(Cc3ccccn3)nc2c(=O)[nH]1 | inactive
CCCCN(CCCC)CCCOC(=O)c1ccc(N)cc1 | inactive
COc1cc2[nH]c(=O)[nH]c(=O)c2cc1OC | inactive
COCC(O)CO (stereo unspecified) | inactive
CCCCOC(=O)CCS | inactive
O=C(O)c1cccc(O)c1 | inactive
CC1(C)O[C@@H]2C[C@H]3[C@@H]4CCC5=CC(=O)C=C[C@]5(C)[C@H]4[C@@H](O)C[C@]3(C)[C@]2(C(=O)CO)O1 | inactive
CCCOC(=O)c1ccc(N)cc1 | inactive

stdin: Test call, this compound: `CCCCCCCCSCCO`
stdout: inactive

stdin: Per the records of this test, what outcome belongs to OCC1CC=CCC1 (stereo unspecified) ?
stdout: inactive

stdin: Called result for CCOC(=O)C(C)Oc1ccc(Oc2nc3ccc(Cl)cc3o2)cc1 (stereo unspecified)
stdout: inactive

stdin: Hey, what did the test say about `OC(CCCN1CCCCC1)(c1ccccc1)c1ccccc1` ?
stdout: inactive

stdin: Please indicate how the test categorized `Cc1nccn1-c1ccc(Sc2cccc(C3(C(N)=O)CCOCC3)c2)cc1` .
stdout: inactive

stdin: Record lookup: outcome of this test for `O=C(N/N=C/c1ccc([N+](=O)[O-])o1)c1ccc(O)cc1` ?
stdout: inactive

stdin: So what was the verdict on CN1C(=O)CC(C)(c2ccccc2)C1=O (stereo unspecified) in this test?
stdout: inactive

stdin: Could you please tell me the result logged for O=c1[nH]c2ccc(S(=O)CCN3CCC(Cc4ccc(F)cc4)CC3)cc2o1 (stereo unspecified) in this assay?
stdout: inactive
